Provenance of the data: PubChem BioAssay (NCATS)

# Test name: MultiTox-Fluor Cytotoxicity Assay - LYMP1-003 - Live Cells (AID 962);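 note: cells exposed to compound for 16 hours at 37 °C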
# Condition info: LYMP1-003 lymphoblastoid cells, MultiTox-Fluor live-cell protease fluorescence; series mostly up to 92.2 µM
# Source text: NIH Chemical Genomics Center [NCGC] NIH Molecular Libraries Screening Centers Network [MLSCN] National Institutes of Environmental Health Sciences [NIEHS] National Toxicology Program [NTP] We have developed a 1536-well cell-based assay for quantitative high throughput screening (qHTS) against a number of cell lines to determine in vitro cytotoxicity of small molecules. […] 8. Detection; live-cell fluorescence (Ex/Em=405/510); EnVision plate reader […]
Active and inactive are the calls of the source. Calls come from the whole dose curve; as a rule, active = well fitted cell-killing curve with a large enough effect; inconclusive = small, poorly fitted or top-dose-only effect; inactive = flat fitted curve, though single readings scatter.
Outcome codes: YES (active), NO (inactive)

Compound: Nc1ccc(C(=O)O)cc1
Answer label: NO
--
Compound: NC(=NCCCCCCN=C(N)/N=C(\N)Nc1ccc(Cl)cc1)/N=C(\N)Nc1ccc(Cl)cc1
Answer label: YES
--
Compound: CN(C)/N=N/c1nc[nH]c1C(N)=O
Answer label: NO
--
Compound: C[C@]12CC[C@@H]3c4ccc(O)cc4CC[C@H]3[C@@H]1CC[C@@H]2O
Answer label: NO
--
Compound: O=C1OC(c2ccc(O)cc2)(c2ccc(O)cc2)c2ccccc21
Answer label: NO
--
Compound: CCCCCCc1ccc(O)cc1O
Answer label: NO
--
Compound: COc1cccc2c1C(=O)c1c(O)c3c(c(O)c1C2=O)C[C@@](O)(C(=O)CO)C[C@@H]3O[C@H]1C[C@H](N)[C@H](O)[C@H](C)O1
Answer label: YES
--
Compound: COC1=CC(=O)C[C@@H](C)[C@]12Oc1c(Cl)c(OC)cc(OC)c1C2=O
Answer label: NO
--
Compound: C=CCc1ccc(O)c(OC)c1
Answer label: NO
--
Compound: COc1cccc2c1C(=O)c1c(O)c3c(c(O)c1C2=O)C[C@@](O)(C(C)=O)C[C@@H]3O[C@H]1C[C@H](N)[C@H](O)[C@H](C)O1
Answer label: YES
--
Compound: CC(O)C(=O)O (stereo unspecified)
Answer label: NO

====

# Test system: Muscarinic acetylcholine receptor M1 (Rattus norvegicus) (UniProt P08482)
# Sequence (P08482 whole entry, looked up): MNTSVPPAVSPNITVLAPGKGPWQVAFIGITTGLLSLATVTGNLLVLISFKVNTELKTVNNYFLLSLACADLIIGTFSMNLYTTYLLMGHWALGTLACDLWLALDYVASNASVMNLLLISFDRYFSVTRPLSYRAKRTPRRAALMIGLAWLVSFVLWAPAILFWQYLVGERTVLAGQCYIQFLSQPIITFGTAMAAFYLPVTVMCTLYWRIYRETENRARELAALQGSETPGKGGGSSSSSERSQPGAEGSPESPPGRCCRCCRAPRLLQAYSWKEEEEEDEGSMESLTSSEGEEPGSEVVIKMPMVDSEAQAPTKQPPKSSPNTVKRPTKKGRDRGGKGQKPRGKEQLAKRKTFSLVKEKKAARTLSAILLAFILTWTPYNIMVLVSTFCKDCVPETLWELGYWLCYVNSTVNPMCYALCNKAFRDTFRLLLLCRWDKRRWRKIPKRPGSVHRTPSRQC
# Test name: qHTS Assay for Antagonists of Acetylcholine Muscarinic M1 Receptor: Measurement of IP-One Response (AID 944); note: nearly all actives have a fitted effect of over 75% in size
# Condition info: CHO-M1 cells, IP-One HTRF, antagonist mode; series mostly up to 46.1 µM
Results filed as inconclusive are left out. Activity calls are given as the source filed them. Calls follow the shape of the dose curve; as a rule, active = well fitted inhibition curve with a large enough effect; inconclusive = small, poorly fitted or top-dose-only effect; inactive = no such curve, though single readings can be large or run the other way.
Possible outcomes: T (active), F (inactive)

Smiles: C1CCc2nnnn2CC1
Test system: Muscarinic acetylcholine receptor M1 (Rattus norvegicus) (UniProt P08482)
Answer label: F
//
Smiles: COc1cc(NS(C)(=O)=O)ccc1Nc1c2ccccc2nc2ccccc12
Test system: Muscarinic acetylcholine receptor M1 (Rattus norvegicus) (UniProt P08482)
Answer label: T
//
Smiles: CC(C)NC[C@@H](O)COc1cccc2ccccc12
Test system: Muscarinic acetylcholine receptor M1 (Rattus norvegicus) (UniProt P08482)
Answer label: F
//
Smiles: N[C@@H](Cc1cnc[nH]1)C(=O)O
Test system: Muscarinic acetylcholine receptor M1 (Rattus norvegicus) (UniProt P08482)
Answer label: F
//
Smiles: C[N+]1(CCCCC[N+]2(C)CCCC2)CCCC1
Test system: Muscarinic acetylcholine receptor M1 (Rattus norvegicus) (UniProt P08482)
Answer label: F
//
Smiles: CC(C)COC(=O)OCN1C(=O)CN(CCN2CC(=O)N(COC(=O)OCC(C)C)C(=O)C2)CC1=O
Test system: Muscarinic acetylcholine receptor M1 (Rattus norvegicus) (UniProt P08482)
Answer label: F
//
Smiles: Nc1cc(Cl)c(NC2=NCCN2)c(Cl)c1
Test system: Muscarinic acetylcholine receptor M1 (Rattus norvegicus) (UniProt P08482)
Answer label: F

====

# Test system: Glucocorticoid receptor (Homo sapiens) (UniProt P04150)
# Sequence (P04150 whole entry, looked up): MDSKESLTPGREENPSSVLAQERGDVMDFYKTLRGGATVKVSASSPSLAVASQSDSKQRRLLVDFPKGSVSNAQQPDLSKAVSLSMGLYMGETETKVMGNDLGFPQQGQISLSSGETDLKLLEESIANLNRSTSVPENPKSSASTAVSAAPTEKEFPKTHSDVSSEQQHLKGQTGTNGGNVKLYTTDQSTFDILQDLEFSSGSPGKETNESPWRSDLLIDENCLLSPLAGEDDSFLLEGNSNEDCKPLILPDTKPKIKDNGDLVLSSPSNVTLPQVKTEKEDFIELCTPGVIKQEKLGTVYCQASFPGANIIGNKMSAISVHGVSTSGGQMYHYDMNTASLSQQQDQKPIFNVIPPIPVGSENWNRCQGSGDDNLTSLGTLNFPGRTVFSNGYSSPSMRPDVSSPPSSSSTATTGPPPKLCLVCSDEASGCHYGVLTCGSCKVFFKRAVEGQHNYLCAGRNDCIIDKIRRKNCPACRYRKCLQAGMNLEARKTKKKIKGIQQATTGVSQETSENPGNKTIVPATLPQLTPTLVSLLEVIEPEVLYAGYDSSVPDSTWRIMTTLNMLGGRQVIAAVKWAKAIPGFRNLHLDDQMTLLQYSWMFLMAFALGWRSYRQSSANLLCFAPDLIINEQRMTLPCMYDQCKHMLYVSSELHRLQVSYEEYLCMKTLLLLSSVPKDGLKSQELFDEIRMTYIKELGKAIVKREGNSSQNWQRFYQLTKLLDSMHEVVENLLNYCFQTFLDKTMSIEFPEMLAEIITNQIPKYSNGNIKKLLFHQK
# Test name: GR-EFC Redistribution (AID 451); note: potency is the fitted concentration of half-maximal effect
# Condition info: CHO-K1 GR-EFC translocation, beta-gal luminescence, 2 h
Calls of active or inactive are those of the source. Calls come from the whole dose curve.
Known Potency of a selection of compounds

Smiles: CC(=O)N(O)CCCCCNC(=O)CCC(=O)N(O)CCCCCNC(=O)CCC(=O)N(O)CCCCCN
Potency: > 20.6 µM (inactive)
--
Smiles: CCCCOc1ccc(C(=O)CCN2CCCCC2)cc1
Potency: > 20.6 µM (inactive)
--
Smiles: CC(C)(C(=O)c1cccnc1)c1cccnc1
Potency: > 20.6 µM (inactive)
--
Smiles: CN1CCN(C(c2ccccc2)c2ccccc2)CC1
Potency: > 20.6 µM (inactive)
--
Smiles: CCCCOc1cc(C(=O)NCCN(CC)CC)c2ccccc2n1
Potency: > 20.6 µM (inactive)
--
Smiles: COc1cc(NS(C)(=O)=O)ccc1Nc1c2ccccc2nc2ccccc12
Potency: > 46 µM (inactive)
--
Smiles: NCCc1ccn[nH]1
Potency: > 20.6 µM (inactive)
--
Smiles: CC(C)COC(=O)OCN1C(=O)CN(CCN2CC(=O)N(COC(=O)OCC(C)C)C(=O)C2)CC1=O
Potency: > 46 µM (inactive)
--
Smiles: CC(=O)c1ccc2c(c1)N(CCCN1CCC(CCO)CC1)c1ccccc1S2
Potency: > 20.6 µM (inactive)
--
Smiles: NC(=NCCCCCCN=C(N)/N=C(\N)Nc1ccc(Cl)cc1)/N=C(\N)Nc1ccc(Cl)cc1
Potency: > 20.6 µM (inactive)
--
Smiles: CN=C(NC#N)NCCSCc1csc(N=C(N)N)n1
Potency: > 46 µM (inactive)
--
Smiles: C[C@@H](CN(C)C)CN1c2ccccc2Sc2ccccc21
Potency: > 20.6 µM (inactive)
--
Smiles: Cc1ccnc(NS(=O)(=O)c2ccc(N)cc2)n1
Potency: > 20.6 µM (inactive)
--
Smiles: CCN(CC)C(=O)N1CCN(C)CC1
Potency: > 20.6 µM (inactive)
--
Smiles: Oc1ccc(O)cc1
Potency: > 46 µM (inactive)
--
Smiles: CCOC(=O)n1ccn(C)c1=S
Potency: > 20.6 µM (inactive)
--
Smiles: O=C(O)c1cc2cc(Cc3cccnc3)ccc2o1
Potency: > 46 µM (inactive)
--
Smiles: CCn1cc(C(=O)O)c(=O)c2cnc(N3CCCC3)nc21
Potency: > 20.6 µM (inactive)
--
Smiles: N[C@@H](Cc1cnc[nH]1)C(=O)O
Potency: > 46 µM (inactive)
--
Smiles: Oc1ccc(Cl)cc1Sc1cc(Cl)ccc1O
Potency: > 9.22 µM (inactive)
--
Smiles: COc1ccc(CCN2CCC(Nc3nc4ccccc4n3Cc3ccc(F)cc3)CC2)cc1
Potency: > 20.6 µM (inactive)
--
Smiles: Nc1cc(Cl)c(NC2=NCCN2)c(Cl)c1
Potency: > 46 µM (inactive)
--
Smiles: C[C@@H]1C(=O)NC2=Nc3cccc(Cl)c3CN21
Potency: > 46 µM (inactive)
--
Smiles: CNCC[C@@H](Oc1ccccc1C)c1ccccc1
Potency: > 46 µM (inactive)
--
Smiles: CN(C(=O)CN(CCO)CC(=O)N(C)C(C)(C)Cc1ccccc1)C(C)(C)Cc1ccccc1
Potency: > 20.6 µM (inactive)
--
Smiles: CCOc1ccc(Cc2nccc3cc(OCC)c(OCC)cc23)cc1OCC
Potency: > 20.6 µM (inactive)

====

Potency by entry:
# Test name: Drug repurposing screens with cells derived from glioblastoma tumor samples (AID 1345199); note: potency is the fitted concentration of half-maximal effect; nearly all actives have a fitted effect of over 40% in size
# Condition info: GBM patient neurospheres viability, ATP luminescence, 48 h; tumour line A
Records with an inconclusive call do not appear. Calls of active or inactive are those of the source. Calls follow the shape of the dose curve; as a rule, active = well fitted inhibition curve with a large enough effect; inconclusive = small, poorly fitted or top-dose-only effect; inactive = flat fitted curve, though single readings scatter.
Measured quantity: Potency

Compound: O=C(Nc1ccc(Cl)c(Cl)c1)C1CC1
Recorded result: 28.2 µM (active)

Compound: CCCCCCCCCCCCCCCC[N+](C)(C)CCN(Cc1ccc(OC)cc1)c1ncccn1
Recorded result: 8.91 µM (active)

Compound: CCCCOc1cc(C(=O)NCCN(CC)CC)c2ccccc2n1
Recorded result: 3.98 µM (active)

Compound: Cc1c(C)n(Cc2ccccc2)c2ccc(C(=O)OCCN(C)C)cc12
Recorded result: 11.2 µM (active)

Compound: CN1[C@@H]2CC[C@H]1CC(OC(=O)c1c[nH]c3ccccc13)C2 (stereo partly drawn)
Recorded result: 11.2 µM (active)

Compound: CN(C(=O)CN(CCO)CC(=O)N(C)C(C)(C)Cc1ccccc1)C(C)(C)Cc1ccccc1
Recorded result: 10 µM (active)

Compound: CCN(CC)CCOC(=O)C(c1ccccc1)C1CCCCC1 (stereo not drawn)
Recorded result: 20 µM (active)

Compound: CN1CCN(CCCN2c3ccccc3Sc3ccc(S(=O)(=O)N(C)C)cc32)CC1
Recorded result: 7.94 µM (active)

====

# Tested on: CP211
# Test name: qHTS profiling for inhibitors of Plasmodium falciparum proliferation (AID 504749); note: nearly all actives have a fitted effect of over 60% in size
# Condition info: P. falciparum in erythrocytes, SYBR Green DNA, 72 h; series mostly up to 28.7 µM
# Experimental: NIH National Institute of Allergy and Infectious Diseases [NIAID] NIH Chemical Genomics Center [NCGC] […] Because mature erythrocytes lack DNA, only Plasmodium-derived DNA is detected. NCGC Assay Protocol Summary: The SYBR Green viability assay was adapted from a method described previously (Plouffe et al., 2008). […] The following morning, fluorescence intensity at 485(14) nm excitation and 535(25) nm emission wavelengths was measured on an EnVision (Perkin Elmer) plate reader. […]
Results filed as inconclusive are left out. Calls of active or inactive are those of the source. The call rests on the fitted dose curve; in most records, active means well fitted inhibition curve with a large enough effect; inconclusive means small, poorly fitted or top-dose-only effect; inactive means flat fitted curve, though single readings scatter.
Possible outcomes: active, inactive

Smiles: CC(C)COC(=O)OCN1C(=O)CN(CCN2CC(=O)N(COC(=O)OCC(C)C)C(=O)C2)CC1=O
Answer label: inactive
//
Smiles: CCCCCCc1ccc(O)cc1O
Answer label: inactive
//
Smiles: O=C(Nc1ccc(Cl)c(Cl)c1)C1CC1
Answer label: inactive
//
Smiles: Cc1c(C)n(CCN(C)C)c2ccc(C(=O)OCCN(C)C)cc12
Answer label: inactive
//
Smiles: C#C[C@]1(OC(C)=O)CC[C@H]2[C@@H]3CCC4=C[C@@H](OC(C)=O)CC[C@@H]4[C@H]3CC[C@@]21C
Answer label: inactive
//
Smiles: CN1CCN(C(c2ccccc2)c2ccccc2)CC1
Answer label: inactive
//
Smiles: NC(=NCCCCCCN=C(N)/N=C(\N)Nc1ccc(Cl)cc1)/N=C(\N)Nc1ccc(Cl)cc1
Answer label: active
//
Smiles: COc1c(C)c2c(c(O)c1C/C=C(\C)CCC(=O)O)C(=O)OC2
Answer label: active
//
Smiles: C[C@]12CC[C@@H]3c4ccc(O)cc4CC[C@H]3[C@@H]1CC[C@@H]2O
Answer label: inactive
//
Smiles: C[C@@H](CN(C)C)CN1c2ccccc2Sc2ccccc21
Answer label: inactive
//
Smiles: C[N+]1(CCCCC[N+]2(C)CCCC2)CCCC1
Answer label: inactive
//
Smiles: CN=C(NC#N)NCCSCc1csc(N=C(N)N)n1
Answer label: inactive
//
Smiles: N[C@@H](Cc1cnc[nH]1)C(=O)O
Answer label: inactive
//
Smiles: CCN1CCN(c2cc3c(cc2F)c(=O)c(C(=O)O)cn3C2CC2)CC1
Answer label: inactive
//
Smiles: Cc1cc(O)c(C(C)C)cc1Cl
Answer label: inactive
//
Smiles: COc1ccc(/C=C/C(=O)c2ccc(OC)cc2OC)cc1
Answer label: active
//
Smiles: C[C@@H]1C[C@H]2[C@@H]3CCC4=CC(=O)C=C[C@]4(C)[C@@]3(F)[C@@H](O)C[C@]2(C)[C@H]1C(=O)CO
Answer label: inactive
//
Smiles: Cc1ccnc(NS(=O)(=O)c2ccc(N)cc2)n1
Answer label: inactive
//
Smiles: Nc1ccc(/C=C/c2ccc(N)cc2S(=O)(=O)O)c(S(=O)(=O)O)c1
Answer label: inactive
//
Smiles: CN1CCC[C@@H]1c1cccnc1
Answer label: inactive
//
Smiles: CCCN1CCCC[C@H]1C(=O)Nc1c(C)cccc1C
Answer label: inactive
//
Smiles: CCCCCCC[N+](CC)(CC)CCCCc1ccc(Cl)cc1
Answer label: active
//
Smiles: CN1CCC(=C2c3ccccc3Sc3ccccc32)CC1
Answer label: active
//
Smiles: Oc1ccc(Cl)cc1Sc1cc(Cl)ccc1O
Answer label: inactive
